- System Under Test: L1 (DV1-GV4) antigen: soluble heterodimeric γδ TCR in leucine zipper format (TRDV1/TRGV4) (human)
- Sequence (main, as listed by the source): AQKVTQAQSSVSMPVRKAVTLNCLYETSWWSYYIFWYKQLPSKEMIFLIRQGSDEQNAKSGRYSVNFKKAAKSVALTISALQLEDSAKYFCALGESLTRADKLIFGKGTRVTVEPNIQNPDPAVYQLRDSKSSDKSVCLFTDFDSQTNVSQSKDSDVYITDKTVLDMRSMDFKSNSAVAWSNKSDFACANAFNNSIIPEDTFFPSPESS
- Experiment Description: DELFIA affinity ranking with 100 nM biotinylated L1
Reported DELFIA signal, 100 nM L1 values for a set of binders
Quick one: just the number, no unit, thanks!

Binder: 1141_P01_E01 (scFv) (scFv) scFv: QVQLVQSGAEVKKPGESLKISCKGSGYSFTSYWIGWVRQMPGKGLEWMGIIYPGDSDTRYSPSFQGQVTISADKSISTAYLQWSSLKASDTAMYYCARHQVDTRTADYWGQGTLVTVSSGGGGSGGGGSGGGASQSALTQPASVSGSPGQSVTISCTGTRSDVGGYNYVSWYQHHPGKAPKLMIYEVSNRPSGVSNRFSGSKSGNTASLTISGLQAEDEADYYCSSYTSTSTLVFGGGTKLTVL
DELFIA signal, 100 nM L1: 137000

Turning now to a further record.
[ask] What does the data say about its DELFIA signal, 100 nM L1? Entry: 1252_P01_C08 (scFv) (scFv) scFv: EVQLLESGGGLVQPGRSLRLSCAASGFTVSSNYMSWVRQAPGKGLEWVSVIYSGGSTYYADSVKGRFTISRDNSKNTLYLQMNSLRAEDTAVYYCASPIELGAFDIWGQGTLVTVSSGGGGSGGGGSGGGASSYELTQPPSVSVAPGKTARITCGGNNIGSQSVHWYQQKPGQAPMLVIYYDSDRPSGIPERFSGSNSGNTATLTISRVEAGDEADYYCQVWDSSSDHVVFGGGTKLTVL
[reply] 1980
